Test Method Notes: Acute toxicity determined after intravenal administration in mice
Format: organism-based
Condition Context: mouse, in vivo, iv
Readout: LD50 (mg/kg)
Give the value in mg/kg but do not write mg/kg after it.

Value lookup for LD50; key = CC1(C)C=C(C(=O)NCCCNCc2ccccn2)C(C)(C)N1 102

Field entry: C/C=C/c1ccc(OC(C)C(=O)NCCCNC(=O)C2=CC(C)(C)NC2(C)C)c(OC)c1 (stereo unspecified) 14

Next up: CC1(C)C=C(C(=O)NCCCCNC(=O)c2cccs2)C(C)(C)N1 37

Can you handle CC1(C)C=C(C(=O)NCCCNCc2cccs2)C(C)(C)N1 next? 65

Consider next the molecule CC1(C)C=C(C(=O)NCCCNC(=O)C2CCCCC2C(=O)O)C(C)(C)N1 (stereo unspecified) in the same way. 753

// query: CC1(C)C=C(C(=O)NCCCNCc2cccc(OCc3ccccc3)c2)C(C)(C)N1 7

Consider next the molecule C=CCOc1ccc(CNCCCNC(=O)C2=CC(C)(C)NC2(C)C)cc1OC in the same way. 21

What do you get for CC1(C)C=C(C(=O)NCCCNCc2ccc[nH]2)C(C)(C)N1 ? 20

What about this molecule? Cc1cccc(C)c1NC(=O)C(C)NCCCNC(=O)C1CC(C)(C)NC1(C)C (stereo unspecified) 39

Lookup CC1(C)C=C(C(=O)NCCCNC(=O)c2cccs2)C(C)(C)N1 48

Queued: C=CCc1ccc(OCC(=O)NCCNC(=O)C2=CC(C)(C)NC2(C)C)c(OC)c1 11
